- measurementDescription: Pharmacokinetics of single oral doses of nirogacestat dihydrobromide
- Type: in vivo, human
- protocolConditions: human, in vivo, po, 150 mg, COHORT 1: 150 mg (1 × 150 mg), Period 2, read-out: AUCinf, Geometric Mean
Where a name gives a salt, the structure may show the parent alone.
measurementType: AUC(0-inf) (ng·h/mL)
Numbers only, in ng·h/mL.

Item: CCC[C@H](N[C@H]1CCc2cc(F)cc(F)c2C1)C(=O)Nc1cn(C(C)(C)CNCC(C)(C)C)cn1 [nirogacestat dihydrobromide] | AUC(0-inf): 3020

* * *

- measurementDescription: Pharmacokinetics of single oral doses of nirogacestat dihydrobromide
- Format: in vivo, human
- protocolConditions: human, in vivo, po, 150 mg, COHORT 1: 150 mg (3 × 50 mg), Period 1, read-out: Tmax, Median
Where a name gives a salt, the structure may show the parent alone.
measurementType: Tmax (h)
Give bare numbers, in h.

Quick note, Tmax for CCC[C@H](N[C@H]1CCc2cc(F)cc(F)c2C1)C(=O)Nc1cn(C(C)(C)CNCC(C)(C)C)cn1 [nirogacestat dihydrobromide] landed at 1.49
